biological target: β-Galactosidase (Bovine liver) (Bos taurus, UniProt F1MNT6); test: β-Galactosidase (bovine liver) inhibition; format: biochemical; settings: 1000 μM, read-out: Inhibition % at 1000 μM
Sequence (F1MNT6 1-469): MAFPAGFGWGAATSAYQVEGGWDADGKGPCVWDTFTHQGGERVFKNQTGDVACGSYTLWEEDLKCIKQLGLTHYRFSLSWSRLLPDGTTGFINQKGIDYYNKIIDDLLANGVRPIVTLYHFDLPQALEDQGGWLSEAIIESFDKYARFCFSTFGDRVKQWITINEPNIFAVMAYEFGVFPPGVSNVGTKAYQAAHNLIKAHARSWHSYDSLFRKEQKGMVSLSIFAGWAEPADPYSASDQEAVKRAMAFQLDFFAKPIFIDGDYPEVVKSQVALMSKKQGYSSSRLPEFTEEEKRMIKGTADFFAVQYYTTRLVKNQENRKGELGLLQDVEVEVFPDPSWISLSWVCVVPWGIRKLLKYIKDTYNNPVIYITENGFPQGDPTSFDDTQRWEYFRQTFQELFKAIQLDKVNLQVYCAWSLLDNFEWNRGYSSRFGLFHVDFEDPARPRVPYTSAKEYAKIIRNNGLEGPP
Decide using inhibition at 1000 µM: a value greater than or equal to 3% is YES, a smaller one is NO.

- CC(=O)NC[C@H]1N[C@H](CO)[C@H](O)[C@H]1O [F-10b]: YES
- CC(=O)NC[C@H]1N[C@@H](CO)[C@H](O)[C@@H]1O: NO
- CC(=O)NC[C@H]1N[C@H](CO)[C@H](O)[C@@H]1O: YES
- CC(=O)NC[C@@H]1N[C@H](CO)[C@@H](O)[C@H]1O: YES
- CC(=O)NC[C@@H]1N[C@@H](CO)[C@@H](O)[C@H]1O: NO
- CC(=O)NC[C@@H]1N[C@H](CO)[C@H](O)[C@H]1O [F-10a]: YES
- CC(=O)NC[C@@H]1N[C@@H](CO)[C@@H](O)[C@@H]1O [E-10b]: YES
- CC(=O)NC[C@@H]1N[C@@H](CO)[C@H](O)[C@H]1O: NO
- CC(=O)NC[C@H]1N[C@@H](CO)[C@@H](O)[C@@H]1O [E-10a]: YES
